Provenance of the data: paper PMC12136788

molecular target: MSI1 full-length (mouse, UniProt Q61474 1-362); test: nsRBNS (natural sequence RNA bind-n-seq); RBNS binding buffer (assumed for nsRBNS): 25 mM Tris pH 7.5, 150 mM KCl, 3 mM MgCl2, 0.01% Triton X-100, 500 ug/ml BSA, 20 U/ml SUPERase-In, 4 C; UNK is unkempt and MSI1 is Musashi-1; names of the RNAs are library labels; protein concentration not given here; high values mean tight binding
Sequence (Q61474 whole entry): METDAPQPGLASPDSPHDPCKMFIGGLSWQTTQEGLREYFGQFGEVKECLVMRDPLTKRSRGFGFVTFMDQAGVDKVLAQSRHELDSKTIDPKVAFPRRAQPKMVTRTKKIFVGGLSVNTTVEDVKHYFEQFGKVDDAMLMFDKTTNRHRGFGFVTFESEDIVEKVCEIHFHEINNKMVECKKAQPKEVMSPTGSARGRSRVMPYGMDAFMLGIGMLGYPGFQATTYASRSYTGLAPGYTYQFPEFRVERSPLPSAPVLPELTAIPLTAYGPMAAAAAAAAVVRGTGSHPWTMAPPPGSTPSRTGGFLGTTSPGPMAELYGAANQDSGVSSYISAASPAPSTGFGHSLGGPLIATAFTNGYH
In all, about 5,800 sequences were measured (“enrichment r”: median about 0.54, highest 2% from about 16 on). Only a selection was taken, and the highest values are over-represented in it overall.
QUANTITY KIND: log10(binding signal) (log10 of the value in enrichment R)

>  <BINDER>
chr2:216672374:216672548:-|3pUTR|ENSG00000115461|msi1|total|mutant (ssRNA) RNA: GGGAGUUCUACAGUCCGACGAUCUUUUUCUUUUUUUUUUUGAAGACAGCAAUAACCACAGUACAUAUUACUGCCGUUCUCUACCGUUUUACAUACAUUCAUACCAUAACUCUGUUCUCUCCUCUUUUUUGUUUUCAACUUUAACAACAGAGGAUUGAGCAUCA

>  <QUANTITY KIND>
log10(binding signal)

>  <VAL>
0.87

$$$$
>  <BINDER>
chr22:41636480:41636706:+|CDS|ENSG00000196419|unk|FALSE|unique (ssRNA) RNA: GGGAGUUCUACAGUCCGACGAUCAUGGGCCACGGAUCUGACUACUCACUCAGUGAAGUGCUGUGGGUCUGUGCCAACCUCUUUAGUGAUGUCCAAUUCAAGAUGAGUCAUAAGAGGAUCAUGCUGUUCACCAAUGAAGACAACCAACAGAGGAUUGAGCAUCA

>  <QUANTITY KIND>
log10(binding signal)

>  <VAL>
-0.42

$$$$
>  <BINDER>
chr1:113685846:113685948:+|3pUTR|ENSG00000081026|unk|FALSE|unique (ssRNA) RNA: GGGAGUUCUACAGUCCGACGAUCUAUAUACACUUGAGGUUCUGAUUAGAGAAAGAUCUGUAAAUUGCUCAUUAUUUUUUAUAUAGAUAUUUAAAAAAAACAGUUUAUGGCCUGCAUUUCUUUUACUGUCACAUUGGUUUAAUGCAACAGAGGAUUGAGCAUCA

>  <QUANTITY KIND>
log10(binding signal)

>  <VAL>
1.13

$$$$
>  <BINDER>
chr10:16593140:16593241:-|3pUTR|ENSG00000148484|unk|FALSE|unique (ssRNA) RNA: GGGAGUUCUACAGUCCGACGAUCUUAUUUUUCUUUUCACUCUCUUUCUAAUGCUUCCCACCUUACCUUUUAGAUUCUUUUGCUAGGUGGGAGAUUGUUAUAAGGUCUUUAAACCAUUUCCAUUUGUUUCUUUAACAUUACCAACAACAGAGGAUUGAGCAUCA

>  <QUANTITY KIND>
log10(binding signal)

>  <VAL>
1.02

$$$$
>  <BINDER>
chr10:30313878:30313980:-|CDS|ENSG00000107951|unk|FALSE|unique (ssRNA) RNA: GGGAGUUCUACAGUCCGACGAUCUGUUUUUAUAUUUAAGCCCUUCAUGUACUUACUCAUUUUUUCUUCUGUGUAAUAAUCUAUAGGGAAGGGAGCAAAACAAACCUGAUUCUUCUCCUCUGUACAUUCAGAAUCCAUUUGAAACAACAGAGGAUUGAGCAUCA

>  <QUANTITY KIND>
log10(binding signal)

>  <VAL>
0.02

$$$$
>  <BINDER>
ENSG00000079335:stop:overlap|stop_codon|ENSG00000079335|stop_codon|NA|stop_codon (ssRNA) RNA: GGGAGUUCUACAGUCCGACGAUCUUGGUGGAAAUCUUUCAAAAACACAAAACAUGGAACGAUUUGGAGAGGUAAGUUUUCCCUAGGAGAUUCUAUCUUCUUAAAACUGAUGUUCUGCAUUUGUUUCUCAGUUGGACCUAUAUACAACAGAGGAUUGAGCAUCA

>  <QUANTITY KIND>
log10(binding signal)

>  <VAL>
0.66

$$$$
>  <BINDER>
chr15:44665791:44665971:-|CDS|ENSG00000229474|control|control|control (ssRNA) RNA: GGGAGUUCUACAGUCCGACGAUCGAUCUGUUUGUUCUGGAAUACGUGUAUGUGGGAAGUUGAAUCAUCAGACACUAGCUACAUAGACUAUGUUUACAGGGAUCCAGAGAGUCUGAAGACAUUUCUUAUGCCUUUAUAUAUUGGCAACAGAGGAUUGAGCAUCA

>  <QUANTITY KIND>
log10(binding signal)

>  <VAL>
-0.55

$$$$
>  <BINDER>
chr2:30158716:30158817:+|CDS|ENSG00000119801|msi1|total|mutant (ssRNA) RNA: GGGAGUUCUACAGUCCGACGAUCGUUUGCCACUGAAGACAGCCAGCGAUAUAAGGAAGGCCGCGUGAUCCUGGAACGUGCUCCCGUUCGAGAGAGUGAGGGCUUUGAGGAGCAUGUACCAUCUGAUAACUCUUGAAGAUACAGCAACAGAGGAUUGAGCAUCA

>  <QUANTITY KIND>
log10(binding signal)

>  <VAL>
-0.33

$$$$
